Test system: Methicillin-resistant S. aureus USA 300
Format: cell-based, Staphylococcus aureus
protocol_conditions: USA 300, 18 h
Non-standard residues stand in square brackets, D forms with d. Residues, ends and D or L forms follow the SMILES beside them. Gly(Nα-4-Cl-benzyl) = O=C(O)CNCc1ccc(Cl)cc1; N(4-F-Bzl)Gly = O=C(O)CNCc1ccc(F)cc1; NBzl(4-I)Gly = O=C(O)CNCc1ccc(I)cc1; Nphe = O=C(O)CNCc1ccccc1; Nlys = NCCCCNCC(=O)O
property_name: Minimal inhibitory concentration MRSA^c (µg/mL)
Give a bare numeral; the unit µg/mL is implied.

Use these answered entries as a reference point.
NCCCCNCC(=O)N(CC(=O)N(CCCCN)CC(=O)N(CC(=O)N(CCCCN)CC(=O)N(CC(N)=O)Cc1ccc(F)cc1)Cc1ccc(F)cc1)Cc1ccc(F)cc1 [Compound 2] (H-[Nlys][N(4-F-Bzl)Gly][Nlys][N(4-F-Bzl)Gly][Nlys][N(4-F-Bzl)Gly]-NH2) : 512
NCCCCNCC(=O)N(CC(=O)N(CCCCN)CC(=O)N(CC(=O)N(CCCCN)CC(=O)N(CC(N)=O)Cc1ccc(Cl)cc1)Cc1ccccc1)Cc1ccc(Cl)cc1 [Compound 7] (H-[Nlys][Gly(Nα-4-Cl-benzyl)][Nlys][Nphe][Nlys][Gly(Nα-4-Cl-benzyl)]-NH2) : 128

Consider the record given below.
For the compound NCCCCNCC(=O)N(CC(=O)N(CCCCN)CC(=O)N(CC(=O)N(CCCCN)CC(=O)N(CC(=O)N(CCCCN)CC(=O)N(CC(=O)N(CCCCN)CC(=O)N(CC(N)=O)Cc1ccc(I)cc1)Cc1ccccc1)Cc1ccc(I)cc1)Cc1ccccc1)Cc1ccc(I)cc1 [Compound 27] (H-[Nlys][NBzl(4-I)Gly][Nlys][Nphe][Nlys][NBzl(4-I)Gly][Nlys][Nphe][Nlys][NBzl(4-I)Gly]-NH2) , the measured Minimal inhibitory concentration MRSA^c on Methicillin-resistant S. aureus USA 300 was 4

###

System: S. aureus ATCC 29213
Format: cell-based, Staphylococcus aureus
protocol_conditions: ATCC 29213, 18 h
Non-standard residues stand in square brackets, D forms with d. Residues, ends and D or L forms follow the SMILES beside them. Gly(Nα-4-Cl-benzyl) = O=C(O)CNCc1ccc(Cl)cc1; Nphe = O=C(O)CNCc1ccccc1; Nlys = NCCCCNCC(=O)O
property_name: Minimal inhibitory concentration SA^b (µg/mL)
Give a bare numeral; the unit µg/mL is implied.

Minimal inhibitory concentration SA^b in this record for NCCCCNCC(=O)N(CC(=O)N(CCCCN)CC(=O)N(CC(=O)N(CCCCN)CC(=O)N(CC(=O)N(CCCCN)CC(=O)N(CC(=O)N(CCCCN)CC(=O)N(CC(=O)N(CCCCN)CC(=O)N(CC(N)=O)Cc1ccc(Cl)cc1)Cc1ccccc1)Cc1ccc(Cl)cc1)Cc1ccccc1)Cc1ccc(Cl)cc1)Cc1ccccc1 [Compound 34] (H-[Nlys][Nphe][Nlys][Gly(Nα-4-Cl-benzyl)][Nlys][Nphe][Nlys][Gly(Nα-4-Cl-benzyl)][Nlys][Nphe][Nlys][Gly(Nα-4-Cl-benzyl)]-NH2) : 8

###

Listing of entries alongside the reported Minimal inhibitory concentration PA^g.
Test system: P. aeruginosa PA01 (H103)
Type: cell-based, Pseudomonas aeruginosa
protocol_conditions: H103, 18 h
Protocol: Bacterial growth inhibition was determined by using broth microdilution according to the Clinical Laboratory Standards Institute[43]. […] The MIC values were determined as the lowest concentration showing no visible bacterial growth. […]
Non-standard residues stand in square brackets, D forms with d. Residues, ends and D or L forms follow the SMILES beside them. Gly(Nα-4-Cl-benzyl) = O=C(O)CNCc1ccc(Cl)cc1; N(4-F-Bzl)Gly = O=C(O)CNCc1ccc(F)cc1; NBzl(4-I)Gly = O=C(O)CNCc1ccc(I)cc1; Nphe = O=C(O)CNCc1ccccc1; Nlys = NCCCCNCC(=O)O
Give a bare numeral; the unit µg/mL is implied.

NCCCCNCC(=O)N(CC(=O)N(CCCCN)CC(=O)N(CC(=O)N(CCCCN)CC(=O)N(CC(N)=O)Cc1ccc(I)cc1)Cc1ccccc1)Cc1ccc(I)cc1 [Compound 9] (H-[Nlys][NBzl(4-I)Gly][Nlys][Nphe][Nlys][NBzl(4-I)Gly]-NH2) : 256

Minimal inhibitory concentration PA^g in this record for NCCCCNCC(=O)N(CC(=O)N(CCCCN)CC(=O)N(CC(=O)N(CCCCN)CC(=O)N(CC(N)=O)Cc1ccc(Cl)cc1)Cc1ccccc1)Cc1ccc(Cl)cc1 [Compound 7] (H-[Nlys][Gly(Nα-4-Cl-benzyl)][Nlys][Nphe][Nlys][Gly(Nα-4-Cl-benzyl)]-NH2) : 512

Minimal inhibitory concentration PA^g in this record for NCCCCNCC(=O)N(CC(=O)N(CCCCN)CC(=O)N(CC(=O)N(CCCCN)CC(=O)N(CC(=O)N(CCCCN)CC(=O)N(CC(N)=O)Cc1ccc(F)cc1)Cc1ccccc1)Cc1ccc(F)cc1)Cc1ccccc1 [Compound 15] (H-[Nlys][Nphe][Nlys][N(4-F-Bzl)Gly][Nlys][Nphe][Nlys][N(4-F-Bzl)Gly]-NH2) : 512
